Molecular target: CDK4:CCND1 (Homo sapiens (Human), UniProt P11802)
Sequence (P11802 whole entry): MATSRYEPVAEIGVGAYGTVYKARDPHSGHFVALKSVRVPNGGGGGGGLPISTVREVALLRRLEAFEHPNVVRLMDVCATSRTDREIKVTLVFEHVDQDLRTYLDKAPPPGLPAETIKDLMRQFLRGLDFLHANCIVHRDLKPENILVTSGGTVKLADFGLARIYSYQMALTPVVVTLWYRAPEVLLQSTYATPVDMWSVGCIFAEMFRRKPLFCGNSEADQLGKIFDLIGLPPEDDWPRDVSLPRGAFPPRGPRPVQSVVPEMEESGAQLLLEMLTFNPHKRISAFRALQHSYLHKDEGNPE
Sequence (P24385 whole entry partner): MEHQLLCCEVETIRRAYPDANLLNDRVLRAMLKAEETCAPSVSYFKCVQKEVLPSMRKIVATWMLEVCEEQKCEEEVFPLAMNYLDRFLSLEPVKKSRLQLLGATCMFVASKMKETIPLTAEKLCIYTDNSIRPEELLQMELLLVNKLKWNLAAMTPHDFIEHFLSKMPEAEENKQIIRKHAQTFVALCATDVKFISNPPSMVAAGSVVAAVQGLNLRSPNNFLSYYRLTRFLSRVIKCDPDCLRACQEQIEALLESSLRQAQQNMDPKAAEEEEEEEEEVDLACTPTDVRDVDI
Test: NanoBRET assay in MCF-7 cells, CDK4
Assay type: cell-based
Details: NanoBRET, transfected MCF-7 cells, 2 hours; n = 1 or average; read-out: CDK4 IC50
observed property: IC50 (µM)

[[record]]
compound = "CCn1cnc2c(N[C@H]3CCN(S(=O)(=O)C4CC4)C3)nc(N[C@@H](CO)C(C)C)nc21"
observed_property = "IC50"
readout_unit = "µM"
endpoint_result = 7.7


a = CCNS(=O)(=O)N1C[C@@H](F)[C@H](Nc2nc(N[C@@H](CO)C3CC3)nc3c2ncn3C)C1 (relative stereo)
b = C[C@H](Nc1nc(N[C@@H]2CN(S(=O)(=O)c3ncc[nH]3)C[C@H]2F)c2ncn(C(F)F)c2n1)[C@@H](O)C(F)(F)F (relative stereo)
c = O=S(=O)(c1ncc[nH]1)N1C[C@@H](F)[C@H](Nc2nc(N[C@@H](CO)C3CC3)nc3c2ncn3C(F)F)C1 (relative stereo)
### Prompt List from greatest to least IC50. A complete answer lists every label in the requested sequence.
### Response a, b, c
(a: 8.1 µM, b: 1.5 µM, c: 0.8 µM)

###

Test system: POLR2A Ser2 phosphorylation (CDK9)
Experiment: POLR2A Ser2 phosphorylation imaging assay in MCF-7 cells
Assay type: cell-based
Conditions: Homo sapiens, MCF7, 2 h, MCF-7 cells, 2 hours; read-out: POLR2A Ser2 phosphorylation IC50
pIC50: −log10 of the molar value.
observed property: pIC50

Before answering, review these 3 worked examples.
[[record]]
molecule = "CCNS(=O)(=O)N1CC[C@H](Nc2nc(N[C@@H](CO)C3CC3)nc3c2ncn3C)C1"
observed_property = "pIC50"
endpoint_result = 4.75

[[record]]
molecule = "CCn1cnc2c(N[C@H]3CCN(S(=O)(=O)NC)C3)nc(N[C@@H](CC(F)(F)F)[C@@H](C)O)nc21 (relative stereo)"
observed_property = "pIC50"
endpoint_result = "< 4.52"

[[record]]
molecule = "CC[C@H](Nc1nc(N[C@H]2CCN(S(=O)(=O)NC)C2)c2ncn(CC)c2n1)C(C)(C)O"
observed_property = "pIC50"
endpoint_result = "< 4.52"


### Prompt // returns reported pIC50 for input `CC[C@H](Nc1nc(N[C@H]2CCN(S(=O)(=O)NC)C2)c2ncn(CC)c2n1)C(C)=O`
### Response < 4.57

### Prompt // returns reported pIC50 for input `CC[C@H](Nc1nc(N[C@H]2CCN(S(=O)(=O)NC)C2)c2ncn(CC)c2n1)[C@@H](C)O`
### Response < 4.54

### Prompt // returns reported pIC50 for input `CC(C)[C@H](CO)Nc1nc(N[C@H]2CCN(S(=O)(=O)C3CC3)C2)c2ncn(C(C)C)c2n1`
### Response < 4.52

### Prompt // returns reported pIC50 for input CC(C)n1cnc2c(N[C@H]3CCN(S(C)(=O)=O)C3)nc(NC(CO)C3CCCC3)nc21 (some centres unmarked)
### Response < 4.52

### Prompt // returns reported pIC50 for input `CC[C@H](Nc1nc(N[C@H]2CCN(S(=O)(=O)NC)C2)c2ncn(C(F)F)c2n1)[C@@H](C)O`
### Response 4.84

### Prompt // returns reported pIC50 for input `CC[C@H](Nc1nc(N[C@H]2CCN(S(=O)(=O)NC[C@@H]3COCCO3)C2)c2ncn(CC)c2n1)[C@@H](C)O`
### Response < 4.52
